Each record here notes measured melting point.

{"columns": ["compound", "melting point"],
 "data": [
  ["O=C(O)c1cn2c3c(c(N4CCCC4)c(F)cc3c1=O)CCN2Cc1ccccc1", "174 to 180 °C"],
  ["NC(=O)c1ncn2c1CN=C(c1ccccc1Cl)c1cc(Cl)ccc1-2", "> 300 °C"],
  ["O=c1[nH]c2ccc(C(F)(F)F)cc2[nH]c1=O", "330 °C"],
  ["O=C(OCC1OC(Oc2ccc([N+](=O)[O-])cc2)C(OC(=O)c2ccccc2)C(OC(=O)c2ccccc2)C1O)c1ccccc1 (centres undefined)", "180 to 181 °C"],
  ["CCc1cc2[nH]c(=O)c(=O)[nH]c2c(N(CC(=O)OC)S(C)(=O)=O)c1Cl", "296 to 299 °C"],
  ["CC(C#N)Oc1cccc(CN2C(=O)c3cccc(NC(=O)c4ccc(Cl)s4)c3C2=O)c1 (centres undefined)", "88 °C"],
  ["c1ccc(Nc2ccnc3[nH]cnc23)cc1", "251 to 252 °C"],
  ["COc1ccc(C=Cc2c(Cl)cncc2Cl)c2c1OCC2C (centres undefined)", "117 to 118 °C"],
  ["O=C(Oc1ccc(-c2ccc(OC(=O)c3cc(O)c(Br)c(O)c3)cc2)cc1)c1ccc(O)c(O)c1", "252 to 254 °C"]
]}
